# System: Liver microsome
# ASSAY_TEXT: Metabolic stability in human liver microsomes measured per mg of protein
# Assay type: ADME
Each record's class is read off its CLint using these ranges: bin A = under 40 µL/min/mg, bin B = from 40 µL/min/mg up to 100 µL/min/mg, bin C = 100 µL/min/mg and over

O=C(Nc1ccc(OC(F)(F)F)cc1)N1CCOC2(CCN(C(=O)c3cc(Cl)ccn3)CC2)C1 | bin B
O=C(Nc1ccc(OC(F)(F)F)cc1)N1CCOC2(CCN(C(=O)c3ccccc3F)CC2)C1 | bin A
O=C1Cc2cc(C(=O)N3CCC4(CC3)CN(C(=O)Nc3ccc(OC(F)(F)F)cc3)CCO4)ccc2N1 | bin A
O=C(Nc1ccc(OC(F)(F)F)cc1)N1CCOC2(CCN(C(=O)c3cnoc3C3CC3)CC2)C1 | bin B
O=C(Cc1ccccn1)N1CCC2(CC1)CN(C(=O)Nc1ccc(OC(F)(F)F)cc1)CCO2 | bin C

Next compound, please.
Q) # bin lookup: classify O=C(Nc1ccc(C(F)(F)F)cc1)N1CCOC2(CCN(C(=O)c3ccccc3Cl)CC2)C1 by its CLint
A) bin B

* * *

# TARGET_ENTITY: Bifunctional epoxide hydrolase 2 (Homo sapiens, UniProt P34913)
# Sequence (P34913 whole entry): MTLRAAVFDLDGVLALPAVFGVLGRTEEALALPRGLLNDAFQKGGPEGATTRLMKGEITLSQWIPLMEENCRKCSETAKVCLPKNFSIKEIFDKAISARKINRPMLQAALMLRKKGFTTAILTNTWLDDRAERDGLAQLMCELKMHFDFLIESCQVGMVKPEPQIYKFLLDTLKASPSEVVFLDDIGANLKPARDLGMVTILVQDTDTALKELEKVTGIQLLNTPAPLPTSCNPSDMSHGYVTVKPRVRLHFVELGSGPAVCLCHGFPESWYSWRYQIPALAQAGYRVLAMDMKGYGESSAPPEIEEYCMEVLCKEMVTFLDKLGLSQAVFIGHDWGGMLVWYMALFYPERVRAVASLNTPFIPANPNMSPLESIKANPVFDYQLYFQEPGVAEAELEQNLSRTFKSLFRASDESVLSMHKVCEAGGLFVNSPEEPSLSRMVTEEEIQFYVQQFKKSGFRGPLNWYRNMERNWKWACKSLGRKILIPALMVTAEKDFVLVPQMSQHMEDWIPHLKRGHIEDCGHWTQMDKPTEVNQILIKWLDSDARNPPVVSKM
# ASSAY_TEXT: Inhibition of human recombinant sEH expressed in baculovirus infected insect Sf9 cells using cyano(6-methoxynaphthalen-2-yl)methyl trans-[(3-phenyloxiran-2-yl)methyl] carbonate as substrate preincubated for 30 mins followed by substrate addition measured after 20 to 45 mins by fluorescence assay
Reported values of pIC50 for individual entries
The scale used: pIC50 is minus the common logarithm of the concentration in molar units.

Q) Reported pIC50 for O=C(Nc1ccc(OC(F)(F)F)cc1)N1CCOC2(CCN(C(=O)c3ccccc3F)CC2)C1 : what is it?
A) 8.96

Q) Reported pIC50 for O=C1Cc2cc(C(=O)N3CCC4(CC3)CN(C(=O)Nc3ccc(OC(F)(F)F)cc3)CCO4)ccc2N1 : what is it?
A) 8.74

* * *

# TARGET_ENTITY: Bifunctional epoxide hydrolase 2 (Rattus norvegicus, UniProt P80299)
# Sequence (P80299 whole entry): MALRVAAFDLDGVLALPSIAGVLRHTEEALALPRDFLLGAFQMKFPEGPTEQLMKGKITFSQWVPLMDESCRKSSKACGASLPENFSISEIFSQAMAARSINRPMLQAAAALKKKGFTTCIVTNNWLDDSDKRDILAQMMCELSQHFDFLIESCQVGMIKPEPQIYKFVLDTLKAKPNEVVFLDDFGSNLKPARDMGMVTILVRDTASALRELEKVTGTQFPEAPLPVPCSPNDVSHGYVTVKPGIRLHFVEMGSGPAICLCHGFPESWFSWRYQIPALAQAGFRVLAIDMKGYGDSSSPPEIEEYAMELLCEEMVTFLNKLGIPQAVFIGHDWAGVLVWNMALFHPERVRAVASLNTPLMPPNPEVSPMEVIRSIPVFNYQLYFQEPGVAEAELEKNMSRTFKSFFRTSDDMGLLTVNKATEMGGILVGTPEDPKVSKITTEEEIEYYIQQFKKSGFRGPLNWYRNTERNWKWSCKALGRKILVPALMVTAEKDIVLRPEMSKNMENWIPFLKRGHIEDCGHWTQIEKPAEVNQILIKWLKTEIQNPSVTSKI
# ASSAY_TEXT: Inhibition of rat recombinant sEH expressed in baculovirus infected insect Sf9 cells using cyano(6-methoxynaphthalen-2-yl)methyl trans-[(3-phenyloxiran-2-yl)methyl] carbonate as substrate preincubated for 30 mins followed by substrate addition measured after 20 to 45 mins by fluorescence assay
MEASURE_NAME: IC50 (nM)
Respond with the bare value in nM.

Would you please look over these solved cases?
O=C(Nc1ccc(OC(F)(F)F)cc1)N1CCOC2(CCN(C(=O)C3CCCCC3)CC2)C1 | 14.5
O=C(Nc1ccc(OC(F)(F)F)cc1)N1CCOC2(CCN(C(=O)c3c(F)cccc3F)CC2)C1 | 18.5

Q) Tell me reported IC50 for O=C(Nc1ccc(C(F)(F)F)cc1)N1CCOC2(CCN(C(=O)c3ccc(Cl)cc3)CC2)C1 , tested with Bifunctional epoxide hydrolase 2 (Rattus norvegicus, UniProt P80299).
A) 24.9

Q) Tell me reported IC50 for O=C(Nc1ccc(C(F)(F)F)cc1)N1CCOC2(CCN(C(=O)c3c(F)cccc3F)CC2)C1 , tested with Bifunctional epoxide hydrolase 2 (Rattus norvegicus, UniProt P80299).
A) 19.1

Q) Tell me reported IC50 for COc1ccccc1CC(=O)N1CCC2(CC1)CN(C(=O)Nc1ccc(OC(F)(F)F)cc1)CCO2 , tested with Bifunctional epoxide hydrolase 2 (Rattus norvegicus, UniProt P80299).
A) 71.6

Q) Tell me reported IC50 for O=C(Nc1ccc(OC(F)(F)F)cc1)N1CCOC2(CCN(C(=O)c3c[nH]nc3C3CC3)CC2)C1 , tested with Bifunctional epoxide hydrolase 2 (Rattus norvegicus, UniProt P80299).
A) 96.9

Q) Tell me reported IC50 for O=C(Nc1ccc(OC(F)(F)F)cc1)N1CCOC2(CCN(C(=O)C3(c4ccccc4)CC3)CC2)C1 , tested with Bifunctional epoxide hydrolase 2 (Rattus norvegicus, UniProt P80299).
A) 28
